Molecular target: UniProt P35498
Test: Sodium Influx Assay (Flux), NaV1.1;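 also: channels co-expressed with human β1 subunit and held open by modulators, cells exposed to compounds for one hour at room temperature, IC50 from percent inhibition of influx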
Type: cell-based
Conditions: Trex HEK293 cells, ANG2 dye, inactivated state
Counter-ions that a name gives are not always drawn.
Assay readout: IC50 (µM)

- Compound: "C[C@H](Nc1cc(F)c(S(=O)(=O)Nc2nccs2)c(F)c1)c1ccccc1F"
  Assay system: "UniProt P35498"
  Unit of measurement: "µM"
  IC50: 0.476

(a) C[C@H](Nc1cc(F)c(S(=O)(=O)Nc2nccs2)cc1F)c1ccccc1F
(b) O=S(=O)(Nc1nccs1)c1cc(Cl)c(N[C@H](CN2CCCC2)c2ccccc2)cc1F
Input line: Between the entries labeled a and b , whose measured IC50 is lower? Indicate your choice by writing its label.
Output line: a
(a: 1.87 µM, b: 30 µM)

(a) O=S(=O)(Nc1cscn1)c1cc(Cl)c(N[C@@H]2C[C@H](N3CCC3)c3ccccc32)cc1F [Example 321, formate]
(b) CCC(Nc1cc(F)c(S(=O)(=O)Nc2ncns2)cc1F)c1ccccc1 (stereo not shown)
Input line: Among a and b , which shows a numerically higher IC50 result? Indicate your choice by writing its label.
Output line: a
(a: 4.77 µM, b: 0.516 µM)

(P) COC(C)(C)C1CN(Cc2ccccc2CNc2cc(F)c(S(=O)(=O)Nc3cscn3)c(F)c2)C1 [Example 214, 2,2,2-trifluoroacetate]
(Q) O=S(=O)(Nc1nccs1)c1cc(Cl)c(NC2CCCc3cnccc32)cc1F (stereo not shown) [Example 94, 2,2,2-trifluoroacetate]
Input line: Between the entries labeled P and Q , whose measured IC50 is lower? Indicate your choice by writing its label.
Output line: Q

(A) CCC(c1ccccc1)N(C)c1ccc(S(=O)(=O)Nc2nccs2)cc1Cl (stereo not shown)
(B) C[C@H](Nc1ccc(S(=O)(=O)Nc2nccs2)c(F)c1Cl)c1ccccc1F
(C) C[C@H](c1cccc(F)c1CNc1cc(F)c(S(=O)(=O)Nc2cscn2)c(F)c1)N1CCC1 [Example 279, formate]
(D) C[C@H](Nc1cc(F)c(S(=O)(=O)Nc2ccncn2)c(F)c1)c1cc(Cl)ccc1F [Example 206, 2,2,2-trifluoroacetate]
(E) CC[C@H](Nc1cc(F)c(S(=O)(=O)Nc2nccs2)cc1C)c1ccccc1
Input line: Rank by IC50 (largest to smallest). Order the labels as requested and list them.
Output line: C, D, A, B, E

(a) Cc1cc(-c2cccc(F)c2CNc2cc(F)c(S(=O)(=O)Nc3cscn3)c(F)c2)ccn1 [Example 317, formate]
(b) CC1(F)CN(Cc2cccc(F)c2CNc2cc(F)c(S(=O)(=O)Nc3ccon3)c(F)c2)C1 [Example 337, formate]
(c) O=S(=O)(Nc1ncns1)c1ccc(N[C@@H]2CCc3ccccc32)c(Cl)c1
Input line: Ascending by IC50, please: list the compounds accordingly. Order the labels as requested and list them.
Output line: c, a, b
